Where these numbers come from: the supplement of paper PMC11003180

Assign drug sensitivity score to each entry below.
Tested on: MDCK p60AmotL2-inducible + doxycycline (p60AmotL2 expressing)
Assay: drug sensitivity score (DSS) from 5-dose viability curve (DSS (area-based score, 0 = no response)); higher = more sensitive (stronger viability inhibition); extreme values may be limits of the assay
Settings: doxycycline: 10 ng/mL; 72 h
Numbers only.

Query string: Returns the measured drug sensitivity score for the input compound. Input: CC1(C)NC(=O)N(c2ccc([N+](=O)[O-])c(C(F)(F)F)c2)C1=O [Nilutamide]
Result string: 0

Query string: Queued: Cc1c(F)cc(C(=O)NC2CC2)cc1-c1ccc(C(=O)NCC(C)(C)C)cn1
Result string: 0

Hi team, please reply with drug sensitivity score for each item in this list.
1. Cc1[nH]c2ccccc2c1CCNCc1ccc(/C=C/C(=O)NO)cc1
2. CN1CC[C@@H](NC(=O)Nc2ccc(C#N)cc2)C[C@@H]1c1nc2ccccc2[nH]1
3. COc1cc2c(cc1OC(C)C)[C@H](c1ccc(Cl)cc1)N(c1ccc(N(C)C[C@H]3CC[C@H](N4CCN(C)C(=O)C4)CC3)cc1)C(=O)C2
4. O=C(Nc1cccnc1)N1CCC(Cc2cccc(Oc3ccc(C(F)(F)F)cn3)c2)CC1
5. CC(C)[C@H]1C(=O)N[C@@H](CCCNC(=N)N)C(=O)NCC(=O)N[C@@H](CC(=O)O)C(=O)N[C@H](Cc2ccccc2)C(=O)N1C [Cilengitide]

Result string:
1: 15; 2: 0; 3: 7.6; 4: 0.8; 5: 3.8
